# tested.system: JAK3 (Homo sapiens, UniProt P52333)
# Construct: made in house; host or cells: SF9 insect cells (baculovirus)
# Sequence (P52333 783-1124): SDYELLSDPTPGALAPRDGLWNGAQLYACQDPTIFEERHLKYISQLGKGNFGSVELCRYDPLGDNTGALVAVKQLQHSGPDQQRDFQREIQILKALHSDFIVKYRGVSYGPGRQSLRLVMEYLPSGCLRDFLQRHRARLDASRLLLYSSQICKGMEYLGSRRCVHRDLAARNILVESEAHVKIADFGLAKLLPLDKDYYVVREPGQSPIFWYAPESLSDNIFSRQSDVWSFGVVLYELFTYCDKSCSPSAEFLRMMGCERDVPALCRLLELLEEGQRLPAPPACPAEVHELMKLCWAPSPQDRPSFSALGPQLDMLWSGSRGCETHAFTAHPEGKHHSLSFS
# protocol.notes: JAK3 inhibition (Table 4)
# Assay type: biochemical
# run.parameters: read-out: JAK3 Ki
Use Ki to assign classes; range list: range 1 = under 30 nM, range 2 = from 30 nM up to 200 nM, range 3 = 200 nM and over

Cc1nc2cnc3[nH]ccc3c2n1[C@H]1CC[C@H](C(C)(C)O)CC1
range 2
OCc1nc2cnc3[nH]ccc3c2n1C1CCCCC1
range 1
OCc1nc2cnc3[nH]ccc3c2n1C1CCN(CC(F)(F)F)CC1
range 1

query: Band of CN1CCC(NC(=O)Cc2nc3cnc4[nH]ccc4c3n2C2CCCOC2)CC1 (racemic) ?
result: range 2

query: Into which bin does this molecule go? Cc1nc(CN2CCC(n3c([C@@H](C)O)nc4cnc5[nH]ccc5c43)CC2)c[nH]1
result: range 3

query: Please classify: N#CCCN1CCC(n2c(CC(=O)N3CC(F)(F)C3)nc3cnc4[nH]ccc4c32)CC1
result: range 2

query: Assign a bin to C[C@@H](O)c1nc2cnc3[nH]ccc3c2n1[C@@H]1CCCN(CCC#N)C1 [Example 362]
result: range 3

query: For the record CCOC(=O)NCCc1nc2cnc3[nH]ccc3c2n1C1CCN(CC)CC1(F)F (single isomer, unassigned) [Example 680] , report the class its Ki corresponds to.
result: range 1

query: Looking at Cc1nc2cnc3[nH]ccc3c2n1[C@H]1CC[C@H](N)CC1 , which class would you pick?
result: range 1

query: Could you tell me which band c1ncc(CN2CCC[C@@H](n3cnc4cnc5[nH]ccc5c43)C2)cn1 belongs to?
result: range 2
